- System: CAKI-1 renal
- protocol description: NCI tumour cell line growth inhibition, 48 h
Below is a list of entries, each paired with its recorded TGI value.
All answers are understood in µM, so give the number only.

Study these solved cases before continuing.
> print(dat)
            smiles.notation  reported.value
1    COc1ccc(N=NN2CCCC2)cc1            35.1
2  CSC(=S)N/N=C(\C)c1ccccn1            7.25

--- query ---
In plain terms, `O=C(OCCOCCOC(=O)c1c[nH]cc1-c1ccccc1)c1c[nH]cc1-c1ccccc1` has a documented TGI of 83.1

###

Below is a list of entries, each paired with its recorded TGI value.
- Test system: HOP-92 NSCLC
- protocol description: NCI tumour cell line growth inhibition, 48 h
All answers are understood in µM, so give the number only.

Study these solved cases before continuing.
> print(dat)
                                   compound  reported.metric  reported.value
1  N#CC(C(=O)c1ccccc1F)c1nc2cc(C(F)(F)F)ccc2s1 (centres undefined)              TGI            56.2
2                    COc1ccc(N=NN2CCCC2)cc1              TGI            42.4
3  COc1cc2c(/C=C3\C(=O)Nc4ccc(Br)cc43)c(Cl)n(C)c2cc1C              TGI            17.9

In plain terms, `O=[N+]([O-])c1ccc2[nH]cc(-c3c4ccccc4cc4[nH]c5ccc([N+](=O)[O-])cc5c34)c2c1` has a documented TGI of 5.89

In plain terms, `Fc1ccc(Nc2nc(Nc3ccc(-c4nc5ccccc5[nH]4)cc3)nc(N3CCCC3)n2)cc1` has a documented TGI of 5.38

In plain terms, `CO/N=C1/c2cc(OC)ccc2-c2c(NOC)nc3ccccc3c21` has a documented TGI of 46.2
